- system_name: T1, recombinant biotinylated monomeric Fc fusion of human Folate Receptor 2 (hu FolR2 ECD-AcTev-Fcknob-Avi tag … (human, UniProt P0DOX5 223-449 = IgG part, biotin on the C-terminal Avi tag))
- T1 construct: also called FolR2-Fc
- test_description: SPR ProteOn, Fab analyte on immobilized antigen-Fc

{"binder": "21D1 Fab (Fab, V domains shown, bacterial Fab) VH: QVQLVQSGAEVKKPGASVKVSCKASGYTFTSYYMHWVRQAPGQGLEWMGIINPSGGSTSYAQKFQGRVTMTRDTSTSTVYMELSSLRSEDTAVYYCARNYYVGVSPFDYWGQGTLVTVSS VL: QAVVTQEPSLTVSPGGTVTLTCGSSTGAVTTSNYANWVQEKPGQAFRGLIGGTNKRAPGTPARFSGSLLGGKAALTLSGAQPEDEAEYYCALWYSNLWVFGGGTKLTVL", "binding result": "no binding"}
{"binder": "19H3 Fab (Fab, V domains shown, bacterial Fab) VH: QVQLVQSGAEVKKPGASVKVSCKASGYTFTSYYMHWVRQAPGQGLEWMGIINPSGGSTSYAQKFQGRVTMTRDTSTSTVYMELSSLRSEDTAVYYCARTGWSRWGYMDYWGQGTLVTVSS VL: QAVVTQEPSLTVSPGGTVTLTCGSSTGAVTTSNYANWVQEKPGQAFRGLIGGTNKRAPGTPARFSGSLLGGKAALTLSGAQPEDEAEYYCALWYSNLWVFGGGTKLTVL", "binding result": "no binding"}
{"binder": "15H7 Fab (Fab, V domains shown, bacterial Fab) VH: QVQLVQSGAEVKKPGASVKVSCKASGYTFTSYYMHWVRQAPGQGLEWMGIINPSGGSTSYAQKFQGRVTMTRDTSTSTVYMELSSLRSEDTAVYYCARNYYLFSTSFDYWGQGTLVTVSS VL: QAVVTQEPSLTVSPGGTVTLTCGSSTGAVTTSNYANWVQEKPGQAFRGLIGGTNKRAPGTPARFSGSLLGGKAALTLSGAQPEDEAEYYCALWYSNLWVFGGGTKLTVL", "binding result": "no binding"}
